// provenance: PubChem BioAssay

Please provide measured z-score for the entries that follow.
assay: E. coli acrAB mutant growth effects, primary screen, E. coli filamentation inducers, strain DRC39, OD650, 24 h (AID 1178); conditions: higher = more signal, called active from +8 up or from −8 down;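 further: growth measured as culture turbidity by optical density at 650 nm; test concentration not given here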
Reply with just the number.

Need z-score of O=C1C2C=CC(C(O)C3CC=CCC3)N(Nc3ccc([N+](=O)[O-])cc3)C2C(=O)N1c1ccccc1 (configuration not stated) , thanks. -0.544

Need z-score of CO[C@H]1O[C@H](CO)[C@@H](OC(=O)CCc2ccccc2)[C@@H]2OC(=O)[C@@H](Cc3ccc4ccccc4c3)C/C=C/C[C@H](Cc3ccc4ccccc4c3)C(=O)O[C@@H]12 , thanks. 0.552

Need z-score of CN1C2C=C(c3ccc(CO)cc3)C(C3C(=O)N(C(N)=O)C(=O)C32)C1C1CC1 (configuration not stated) , thanks. 0.0605

Need z-score of COCCOC(=O)N1C(=O)[C@@]2(c3cc(C#CC4=CCCCC4)ccc31)[C@H](C(=O)N1CCCCCCC1)[C@H]1C(=O)O[C@H](c3ccccc3)[C@H](c3ccccc3)N1[C@@H]2c1ccccc1OCCO , thanks. -0.294

Need z-score of C=C(C(=O)CC[C@H](OC(=O)c1ccccc1-c1ccccc1C(=O)O)c1ccc(OCCO)cc1)C(C)C , thanks. -0.0716

Need z-score of C[C@]1(C(=O)O)c2ccccc2C(=O)N(Cc2cc(C(F)(F)F)cc(C(F)(F)F)c2)[C@H]1c1ccc(CO)cc1 , thanks. -0.124

Need z-score of O=C1N(Cc2ccccc2)c2ccccc2C[C@@]12N=C(c1ccc(OCCCO)cc1)O[C@H]2c1ccccc1 , thanks. 0.0946
